These measurements were taken from paper PMC9482650.

- study system: GRASP, Q7Z6J2
- Sequence (Q7Z6J2 96-193): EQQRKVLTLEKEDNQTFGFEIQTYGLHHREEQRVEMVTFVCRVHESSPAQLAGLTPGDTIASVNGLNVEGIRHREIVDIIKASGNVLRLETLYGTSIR
- protocol details: holdup assay
- Set-up: key: below the threshold = too weak to quantify, mostly under pKd 3.1 to 4
- settings: plain residues with an end cap or a label only (N-terminal biotin on a linker: ado-ado)
measure: pKd
Quick one: just the number, no unit, thanks!

Solved entries:
* IKAIVDLTGL [TRAF2, Q12933] | 3.94
* QSARLWETSI [ADAM22, Q9P0K1] | 4.17
* VRNLPESEEL [MYOZ3, Q8TDC0] | 3.74

Let's switch to this binder now.
### Prompt Name the recorded pKd for HSGYRLNDYV [CLDN14, O95500] .
### Response 3.74
